Tested on: house flies (Musca domestica, L.)
testMethodNotes: Fly Bait Test
Type: in vivo
Set-up: key: A: excellent control; B: partial control; C: no control
runParameters: 500 ppm in sugar solution, twenty four hours

sampleSmiles: CN(SSN(C)C(=O)ON=C1CSCCS1)C(=O)ON=C1CSCCS1
House-Fly control rating: A
--
sampleSmiles: CN(SSN(C)C(=O)ON=CC(C)(C)C#N)C(=O)ON=CC(C)(C)C#N
House-Fly control rating: A
--
sampleSmiles: CC(=NOC(=O)N(C)SSN(C)C(=O)ON=C(C)SC(C)C)SC(C)C
House-Fly control rating: A

---

LD50 listing for selected molecules.
testMethodNotes: Peroral toxicity to mammals (rat)
runParameters: in vivo, po, 50 percent mortality, read-out: A.O. Rat (LD50)

sampleSmiles: CN(SSN(C)C(=O)ON=C1CSCCS1)C(=O)ON=C1CSCCS1
LD50 (mg/kg): 160
//
sampleSmiles: CSC(C)=NOC(=O)N(C)SSN(C)C(=O)ON=C(C)SC
LD50 (mg/kg): 190
//
sampleSmiles: CC(=NOC(=O)N(C)SSN(C)C(=O)ON=C(C)SCCC#N)SCCC#N
LD50 (mg/kg): 80

---

System: southern armyworm (Prodenia eridania, (Cram.))
testMethodNotes: Southern Armyworm Leaf Spray Test
Type: in vivo
Set-up: key: A: excellent control; B: partial control; C: no control
runParameters: 500 ppm, three days

molecule: CSC(C)=NOC(=O)N(C)SSN(C)C(=O)ON=C(C)SC
Southern Armyworm control rating: A

molecule: CN1CCSC(=NOC(=O)N(C)SSN(C)C(=O)ON=C2SCCN(C)C2=O)C1=O
Southern Armyworm control rating: A

molecule: CC(C)N1C(=O)C(C)(C)SC1=NOC(=O)N(C)SSN(C)C(=O)ON=C1SC(C)(C)C(=O)N1C(C)C
Southern Armyworm control rating: B

molecule: CN(SSN(C)C(=O)ON=C1CSCCS1)C(=O)ON=C1CSCCS1
Southern Armyworm control rating: A

molecule: CC(=NOC(=O)N(C)SSN(C)C(=O)ON=C(C)SCCC#N)SCCC#N
Southern Armyworm control rating: A

molecule: CN(SSN(C)C(=O)ON=CC(C)(C)S(C)(=O)=O)C(=O)ON=CC(C)(C)S(C)(=O)=O
Southern Armyworm control rating: C

molecule: CN(SSN(C)C(=O)ON=CC(C)(C)C#N)C(=O)ON=CC(C)(C)C#N
Southern Armyworm control rating: A

molecule: CC(=NOC(=O)N(C)SSN(C)C(=O)ON=C(C)[S+](C)[O-])[S+](C)[O-] (stereo not shown)
Southern Armyworm control rating: B

molecule: CC(=NOC(=O)N(C)SSN(C)C(=O)ON=C(C)SC(C)C)SC(C)C
Southern Armyworm control rating: A

molecule: CC1OCSC1=NOC(=O)N(C)SSN(C)C(=O)ON=C1SCOC1C (stereo not shown)
Southern Armyworm control rating: A

molecule: CN=C1SC(=NOC(=O)N(C)SSN(C)C(=O)ON=C2SC(=NC)SC2(C)C)C(C)(C)S1
Southern Armyworm control rating: A

molecule: CSC(C)(C)C=NOC(=O)N(C)SSN(C)C(=O)ON=CC(C)(C)SC
Southern Armyworm control rating: A

molecule: CN(SSN(C)C(=O)ON=C1SCCS1)C(=O)ON=C1SCCS1
Southern Armyworm control rating: A
